Attribution: patent US20040086941A1

Target: T1, human receptor protein SLT (hSLT) (human, UniProt Q969V1 1-340)
T1 construct: Full-length human SLT expressed in CHO dhfr- cells; also called human SLT; CHO/hSLT cells
T1 sequence (Q969V1 whole entry): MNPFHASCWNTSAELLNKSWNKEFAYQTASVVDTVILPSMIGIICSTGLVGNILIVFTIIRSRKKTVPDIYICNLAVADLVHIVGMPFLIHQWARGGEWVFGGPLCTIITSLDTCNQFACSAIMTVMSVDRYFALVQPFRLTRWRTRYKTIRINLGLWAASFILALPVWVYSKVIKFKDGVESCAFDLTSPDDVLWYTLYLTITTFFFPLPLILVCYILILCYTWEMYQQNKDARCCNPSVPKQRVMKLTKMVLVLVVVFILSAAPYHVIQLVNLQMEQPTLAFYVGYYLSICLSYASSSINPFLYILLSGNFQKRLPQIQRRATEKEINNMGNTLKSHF
Test: radioligand competition; [125I]-labeled MCH(4-19) on membrane fraction (30 ug/ml) of human SLT-expressing CHO cells, filtration
Experimental: Receptor binding assay was performed using [¹²⁵I]-labeled MCH (4-19) prepared in REFERENCE EXAMPLE 3 using Bolton-Hunter reagent and the cell membrane fraction prepared from human SLT-expressing CHO cells. […]
Positions of bridges follow the written chain, without caps; N, C: chain ends. No end group written: not given here.
PROPERTY LABEL: IC50 (nM)
Please give a number only; it is taken to be in nM.

Please give the documented IC50 of MLRCMLGRVYRPCWQV-OH (disulfide 4-13; N-terminus assumed; SMILES CSCC[C@@H]1NC(=O)[C@@H](NC(=O)[C@H](CCCNC(=N)N)NC(=O)[C@H](CC(C)C)NC(=O)[C@@H](N)CCSC)CSSC[C@@H](C(=O)N[C@@H](Cc2c[nH]c3ccccc23)C(=O)N[C@@H](CCC(N)=O)C(=O)N[C@H](C(=O)O)C(C)C)NC(=O)[C@@H]2CCCN2C(=O)[C@H](CCCNC(=N)N)NC(=O)[C@H](Cc2ccc(O)cc2)NC(=O)[C@H](C(C)C)NC(=O)[C@H](CCCNC(=N)N)NC(=O)CNC(=O)[C@H](CC(C)C)NC1=O, also called amino terminal-truncated form of MCH; N-terminal truncated form) [Des-[Asp1, Phe2, Asp3]-MCH (MCH(4-19))] 3.3
